Values were extracted from patent US20240132521A1.

target_or_test_system: BaF3_HER2WT cells (Homo sapiens, UniProt P04626)
Sequence (P04626 whole entry, change not shown): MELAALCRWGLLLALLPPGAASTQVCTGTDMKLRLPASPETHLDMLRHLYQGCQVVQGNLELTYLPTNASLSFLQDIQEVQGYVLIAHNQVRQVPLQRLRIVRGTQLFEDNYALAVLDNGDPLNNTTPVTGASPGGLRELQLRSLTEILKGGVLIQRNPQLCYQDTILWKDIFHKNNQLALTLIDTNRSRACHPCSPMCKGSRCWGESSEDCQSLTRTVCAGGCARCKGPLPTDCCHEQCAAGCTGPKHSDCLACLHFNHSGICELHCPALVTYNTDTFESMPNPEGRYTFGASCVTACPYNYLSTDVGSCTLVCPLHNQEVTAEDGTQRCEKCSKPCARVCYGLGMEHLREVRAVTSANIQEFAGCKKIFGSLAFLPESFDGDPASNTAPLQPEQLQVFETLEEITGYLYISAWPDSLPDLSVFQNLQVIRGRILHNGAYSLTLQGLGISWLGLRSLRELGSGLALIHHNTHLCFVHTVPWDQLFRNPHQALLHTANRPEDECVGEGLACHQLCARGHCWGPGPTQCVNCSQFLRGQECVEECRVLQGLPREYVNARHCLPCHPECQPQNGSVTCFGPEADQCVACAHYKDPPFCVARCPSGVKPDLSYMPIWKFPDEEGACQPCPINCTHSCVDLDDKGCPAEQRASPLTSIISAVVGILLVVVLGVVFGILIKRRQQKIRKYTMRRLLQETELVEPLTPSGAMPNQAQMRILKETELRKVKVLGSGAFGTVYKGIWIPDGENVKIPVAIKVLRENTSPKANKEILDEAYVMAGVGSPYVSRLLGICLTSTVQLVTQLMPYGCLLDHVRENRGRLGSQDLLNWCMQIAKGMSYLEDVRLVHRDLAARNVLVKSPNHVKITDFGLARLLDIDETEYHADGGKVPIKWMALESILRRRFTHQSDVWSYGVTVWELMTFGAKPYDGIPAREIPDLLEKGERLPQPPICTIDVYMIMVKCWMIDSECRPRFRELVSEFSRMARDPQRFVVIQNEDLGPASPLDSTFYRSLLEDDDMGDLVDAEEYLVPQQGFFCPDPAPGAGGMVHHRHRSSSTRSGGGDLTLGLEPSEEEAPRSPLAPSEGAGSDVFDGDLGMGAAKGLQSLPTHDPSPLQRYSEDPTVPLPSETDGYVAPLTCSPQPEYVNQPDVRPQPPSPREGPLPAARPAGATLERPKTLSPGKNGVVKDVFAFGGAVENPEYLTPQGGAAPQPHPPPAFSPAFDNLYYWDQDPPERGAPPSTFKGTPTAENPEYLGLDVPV
method_summary: Cell growth inhibition assay (CellTiterGlo), BaF3_HER2WT
Format: cell-based
reported_conditions: 3-day treatment, CellTiterGlo, read-out: Cell growth inhibition activity, HER2 WT
measure_name: GI50

Some compounds with known GI50 results, for comparison:
>  <compound>
Cc1cc(Nc2ncnn3ccc(C4=CCN(C(=O)/C=C/CN(C)C)C4)c23)ccc1Oc1ccn2ncnc2c1 [Example 29, acetate]

>  <target_or_test_system>
BaF3_HER2WT cells (Homo sapiens, UniProt P04626)

>  <measure_name>
GI50

>  <result>
< 200 nM

$$$$
>  <compound>
C=CC(=O)NCCn1cc(-c2ccn3ncnc(Nc4ccc(Oc5ccn6ncnc6c5)c(C)c4)c23)cn1

>  <target_or_test_system>
BaF3_HER2WT cells (Homo sapiens, UniProt P04626)

>  <measure_name>
GI50

>  <result>
< 200 nM

$$$$
>  <compound>
Cc1cc(Nc2ncnn3ccc(C4CN(C(=O)/C=C/CN)C4)c23)ccc1Oc1ccn2ncnc2c1

>  <target_or_test_system>
BaF3_HER2WT cells (Homo sapiens, UniProt P04626)

>  <measure_name>
GI50

>  <result>
1500 to 5000 nM

$$$$

# evaluate next
Problem: Entry "C=CC(=O)N1CCCN(c2ccn3ncnc(Nc4ccc(Oc5ccn6ncnc6c5)c(C)c4)c23)CC1" has what GI50?
Solution: < 200 nM

* * *

Quick reference for GI50 among some compounds
target_or_test_system: BaF3_HER2YVMA cells (Homo sapiens, UniProt P04626, DUP772-775, cells depend on it)
Sequence (P04626 with tags, fused parts or gaps DUP772-775): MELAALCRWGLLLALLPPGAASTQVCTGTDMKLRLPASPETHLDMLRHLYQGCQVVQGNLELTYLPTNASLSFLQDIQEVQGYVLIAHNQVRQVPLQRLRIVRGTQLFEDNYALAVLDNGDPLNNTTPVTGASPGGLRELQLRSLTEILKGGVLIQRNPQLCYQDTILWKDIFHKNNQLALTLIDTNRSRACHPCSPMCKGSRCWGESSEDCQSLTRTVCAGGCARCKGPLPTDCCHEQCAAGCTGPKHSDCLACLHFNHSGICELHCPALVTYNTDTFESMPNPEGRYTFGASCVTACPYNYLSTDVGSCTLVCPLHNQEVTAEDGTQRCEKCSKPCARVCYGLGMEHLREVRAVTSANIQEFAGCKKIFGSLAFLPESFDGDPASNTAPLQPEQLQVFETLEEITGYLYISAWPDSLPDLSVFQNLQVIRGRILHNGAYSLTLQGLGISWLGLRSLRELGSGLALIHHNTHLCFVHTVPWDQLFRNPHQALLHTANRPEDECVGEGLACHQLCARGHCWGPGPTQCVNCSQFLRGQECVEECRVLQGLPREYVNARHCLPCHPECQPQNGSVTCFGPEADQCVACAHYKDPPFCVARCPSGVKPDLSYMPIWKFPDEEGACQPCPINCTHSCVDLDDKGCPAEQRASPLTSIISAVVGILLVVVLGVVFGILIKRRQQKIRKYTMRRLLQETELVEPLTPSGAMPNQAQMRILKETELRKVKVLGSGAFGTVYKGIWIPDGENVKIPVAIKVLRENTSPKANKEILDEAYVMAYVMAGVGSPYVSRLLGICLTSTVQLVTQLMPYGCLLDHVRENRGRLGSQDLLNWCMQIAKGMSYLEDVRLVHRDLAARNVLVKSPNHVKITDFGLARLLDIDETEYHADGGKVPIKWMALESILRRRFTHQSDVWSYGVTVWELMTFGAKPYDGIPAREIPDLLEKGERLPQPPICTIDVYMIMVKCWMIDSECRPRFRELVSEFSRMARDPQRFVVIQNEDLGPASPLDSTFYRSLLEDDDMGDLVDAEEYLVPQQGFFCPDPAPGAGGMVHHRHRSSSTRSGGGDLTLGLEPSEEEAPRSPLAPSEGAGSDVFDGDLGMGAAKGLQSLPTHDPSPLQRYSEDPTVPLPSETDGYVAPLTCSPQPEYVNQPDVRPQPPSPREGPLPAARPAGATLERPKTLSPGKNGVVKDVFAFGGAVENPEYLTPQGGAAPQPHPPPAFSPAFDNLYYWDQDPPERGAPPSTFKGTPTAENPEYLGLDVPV
method_summary: Cell growth inhibition assay (CellTiterGlo), BaF3_HER2YVMA
Assay type: cell-based
reported_conditions: 3-day treatment, CellTiterGlo, read-out: Cell growth inhibition activity, HER2 - YVMA

Some compounds with known GI50 results, for comparison:
>  <compound>
CO[C@@H]1CN(C/C=C/C(=O)N2CC(c3ccn4ncnc(Nc5ccc(Oc6ccc7c(c6)ncn7C)c(C)c5)c34)C2)C[C@H]1OC

>  <target_or_test_system>
BaF3_HER2YVMA cells (Homo sapiens, UniProt P04626, DUP772-775, cells depend on it)

>  <result>
< 200 nM

$$$$
>  <compound>
C=C(CN(C)C)C(=O)N1CC2CCC(C1)N2c1ccn2ncnc(Nc3ccc(Oc4ccn5ncnc5c4)c(C)c3)c12 [Example 49, acetate]

>  <target_or_test_system>
BaF3_HER2YVMA cells (Homo sapiens, UniProt P04626, DUP772-775, cells depend on it)

>  <result>
< 200 nM

$$$$
>  <compound>
C=CC(=O)N1CCN(c2ccn3ncnc(Nc4ccc(Oc5ccc6c(c5)ncn6C)c(C)c4)c23)CC1

>  <target_or_test_system>
BaF3_HER2YVMA cells (Homo sapiens, UniProt P04626, DUP772-775, cells depend on it)

>  <result>
< 200 nM

$$$$
>  <compound>
Cc1cc(Nc2ncnn3ccc(C4CN(C(=O)/C=C/CN5CCCCC5)C4)c23)ccc1Oc1ccn2ncnc2c1

>  <target_or_test_system>
BaF3_HER2YVMA cells (Homo sapiens, UniProt P04626, DUP772-775, cells depend on it)

>  <result>
< 200 nM

$$$$
>  <compound>
C=CC(=O)N1CCCC(c2ccn3ncnc(Nc4ccc(Oc5ccn6ncnc6c5)c(C)c4)c23)C1 (stereo not drawn)

>  <target_or_test_system>
BaF3_HER2YVMA cells (Homo sapiens, UniProt P04626, DUP772-775, cells depend on it)

>  <result>
< 200 nM

$$$$

Problem: Enter reported GI50 observed with BaF3_HER2YVMA cells (Homo sapiens, UniProt P04626, DUP772-775, cells depend on it) for "Cc1cc(Nc2ncnn3ccc(C4CCN(C(=O)/C=C/C(=O)O)CC4)c23)ccc1Oc1ccn2ncnc2c1"
Solution: 1500 to 5000 nM

Problem: Try the compound "Cc1cc(Nc2ncnn3ccc(N4CC5CCC(C4)N5C(=O)/C=C/CN(C)C)c23)ccc1Oc1ccn2ncnc2c1"
Solution: < 200 nM

Problem: Try the compound "CNC/C=C/C(=O)N1CC(c2ccn3ncnc(Nc4ccc(Oc5ccn6ncnc6c5)c(C)c4)c23)C1"
Solution: < 200 nM

Problem: Try the compound COC1CCN(C/C=C/C(=O)N2CC(c3ccn4ncnc(Nc5ccc(Oc6ccn7ncnc7c6)c(C)c5)c34)C2)C1 (stereo not drawn)
Solution: < 200 nM

Problem: Try the compound Cc1cc(Nc2ncnn3ccc(C4CCN(C(=O)/C=C/CN(C)C)C4)c23)ccc1Oc1ccn2ncnc2c1 (stereo not drawn)
Solution: 200 to 500 nM

Problem: Try the compound "Cc1cc(Nc2ncnn3ccc(C4CCN(C(=O)/C=C/[C@H]5CCCN5C)CC4)c23)ccc1Oc1ccn2ncnc2c1"
Solution: < 200 nM

Problem: Try the compound "Cc1cc(Nc2ncnn3ccc(C4CN(C(=O)/C=C/CN)C4)c23)ccc1Oc1ccn2ncnc2c1"
Solution: 1500 to 5000 nM

* * *

target_or_test_system: ERBB2-A775_G776insYVMA (ERBB2YVMA) (Homo sapiens, UniProt P04626, INS775YVMA)
Sequence (P04626 with tags, fused parts or gaps INS775YVMA limits assumed): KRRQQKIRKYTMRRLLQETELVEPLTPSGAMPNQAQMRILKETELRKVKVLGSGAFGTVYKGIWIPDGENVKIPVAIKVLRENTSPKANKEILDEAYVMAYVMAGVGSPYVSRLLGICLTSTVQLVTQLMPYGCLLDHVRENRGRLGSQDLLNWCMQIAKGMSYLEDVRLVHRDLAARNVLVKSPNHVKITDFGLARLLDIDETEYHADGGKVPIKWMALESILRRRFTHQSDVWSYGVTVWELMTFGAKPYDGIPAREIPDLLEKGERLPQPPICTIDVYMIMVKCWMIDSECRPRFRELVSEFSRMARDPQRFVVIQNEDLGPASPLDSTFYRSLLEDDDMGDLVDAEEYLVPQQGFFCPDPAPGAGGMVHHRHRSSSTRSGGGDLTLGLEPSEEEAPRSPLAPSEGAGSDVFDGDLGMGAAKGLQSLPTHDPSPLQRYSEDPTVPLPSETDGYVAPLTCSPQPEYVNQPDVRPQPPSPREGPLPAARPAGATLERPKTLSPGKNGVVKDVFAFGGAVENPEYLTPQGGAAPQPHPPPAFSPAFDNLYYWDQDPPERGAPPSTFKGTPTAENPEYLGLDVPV
method_summary: HotSpot radiometric kinase activity assay, ERBB2YVMA
reported_conditions: biochemical activity, 20 nM ERBB2YVMA, 10 μM 33P-ATP, 2 hours, read-out: HER2 - YVMA IC50
pIC50: −log10 of the molar value.
measure_name: pIC50

>  <compound_structure>
Cc1cc(Nc2ncnn3ccc(-c4cnn(CCNC(=O)/C=C/CN(C)C)c4)c23)ccc1Oc1ccn2ncnc2c1

>  <measure_name>
pIC50

>  <result>
6.30 to 6.70

$$$$
>  <compound_structure>
Cc1cc(Nc2ncnn3ccc(C4CN(C(=O)/C=C/CN5CC(F)(F)C5)C4)c23)ccc1Oc1ccn2ncnc2c1

>  <measure_name>
pIC50

>  <result>
> 6.70

$$$$
>  <compound_structure>
Cc1cc(Nc2ncnn3ccc(C4CN(C(=O)/C=C/CN(C)C)C4)c23)ccc1Oc1ccc2c(c1)ncn2C

>  <measure_name>
pIC50

>  <result>
> 6.70

$$$$

Problem: Entry "Cc1cc(Nc2c(C#N)cnn3ccc(C4CN(C(=O)/C=C/CN(C)C)C4)c23)ccc1Oc1ccn2ncnc2c1" has what pIC50?
Solution: 5.30 to 5.82

Problem: Try the molecule "Cc1cc(Nc2ncnn3ccc(C4CN(C(=O)/C=C/CN(C)C)C4)c23)ccc1Oc1ccn2ncnc2c1"
Solution: > 6.70

Problem: Try the molecule "C=CC(=O)N1CC2(C1)CN(c1ccn3ncnc(Nc4ccc(Oc5ccn6ncnc6c5)c(C)c4)c13)C2"
Solution: > 6.70

Problem: Try the molecule "Cc1cc(Nc2ncnn3ccc(C(=O)NCCCN(C)C)c23)ccc1Oc1ccn2ncnc2c1"
Solution: > 6.70

* * *

target_or_test_system: ERBB2-A775_G776insYVMA (ERBB2YVMA) (Homo sapiens, UniProt P04626, INS775YVMA)
method_summary: HotSpot radiometric kinase activity assay, ERBB2YVMA
reported_conditions: biochemical activity, 20 nM ERBB2YVMA, 10 μM 33P-ATP, 2 hours, read-out: HER2 - YVMA IC50
measure_name: IC50

Some compounds with known IC50 results, for comparison:
>  <compound>
C=CC(=O)NC1CCN(C(=O)c2ccn3ncnc(Nc4ccc(Oc5ccn6ncnc6c5)c(C)c4)c23)CC1

>  <IC50>
200 to 500 nM

$$$$
>  <compound>
Cc1cc(Nc2ncnn3ccc(C4CN(C(=O)/C=C/CN5CCCCC5)C4)c23)ccc1Oc1ccn2ncnc2c1

>  <IC50>
< 200 nM

$$$$
>  <compound>
C=CC(=O)NCCn1cc(-c2ccn3ncnc(Nc4ccc(Oc5ccn6ncnc6c5)c(C)c4)c23)cn1

>  <IC50>
< 200 nM

$$$$
>  <compound>
Cc1cc(Nc2ncnn3ccc(C4CCCN(C(=O)/C=C/CN(C)C)CC4)c23)ccc1Oc1ccn2ncnc2c1 (stereo not drawn)

>  <IC50>
< 200 nM

$$$$
>  <compound>
C=CC(=O)N1CCC(c2ccn3ncnc(Nc4ccc(Oc5ccn6ncnc6c5)c(C)c4)c23)CC1

>  <IC50>
< 200 nM

$$$$

# evaluate next
Problem: Enter reported IC50 observed with ERBB2-A775_G776insYVMA (ERBB2YVMA) (Homo sapiens, UniProt P04626, INS775YVMA) for "C=CC(=O)N1CCCN(c2ccn3ncnc(Nc4ccc(Oc5ccn6ncnc6c5)c(C)c4)c23)CC1"
Solution: < 200 nM

* * *

Quick reference for GI50 among some compounds
target_or_test_system: BaF3_HER2YVMA cells (Homo sapiens, UniProt P04626, DUP772-775, cells depend on it)
method_summary: Cell growth inhibition assay (CellTiterGlo), BaF3_HER2YVMA
Format: cell-based
reported_conditions: 3-day treatment, CellTiterGlo, read-out: Cell growth inhibition activity, HER2 - YVMA

Some compounds with known GI50 results, for comparison:
>  <compound>
Cc1cc(Nc2ncnn3ccc(C4CN(C(=O)/C=C/CN5CCOCC5)C4)c23)ccc1Oc1ccn2ncnc2c1 [Example 37]

>  <GI50>
< 200 nM

$$$$
>  <compound>
COC1(c2ccn3ncnc(Nc4ccc(Oc5ccn6ncnc6c5)c(C)c4)c23)CCN(C(=O)/C=C/CN(C)C)CC1 [Example 52]

>  <GI50>
500 to 1500 nM

$$$$
>  <compound>
Cc1cc(Nc2ncnn3ccc(C4CN(C(=O)/C=C/CN(C)C)C4)c23)ccc1Oc1ccn2cnnc2c1 [Example 134]

>  <GI50>
1500 to 5000 nM

$$$$
>  <compound>
Cc1cc(Nc2ncnn3cc(F)c(C4CCN(C(=O)/C=C/CN(C)C)CC4)c23)ccc1Oc1ccn2ncnc2c1 [Example 152]

>  <GI50>
< 200 nM

$$$$
>  <compound>
CO[C@@H]1CN(C/C=C/C(=O)N2CCC(c3ccn4ncnc(Nc5ccc(Oc6ccc7c(c6)ncn7C)c(C)c5)c34)CC2)C[C@H]1OC [Example 168]

>  <GI50>
< 200 nM

$$$$

# evaluate next
Problem: Entry C=CC(=O)N(C)C1CCN(c2ccn3ncnc(Nc4ccc(Oc5ccn6ncnc6c5)c(C)c4)c23)CC1 [Example 74] has what GI50?
Solution: 500 to 1500 nM
